Measured pIC50, listed per entry for reference.
Target: Muscarinic acetylcholine receptor M2 (Homo sapiens, UniProt P08172)
Sequence (P08172 whole entry): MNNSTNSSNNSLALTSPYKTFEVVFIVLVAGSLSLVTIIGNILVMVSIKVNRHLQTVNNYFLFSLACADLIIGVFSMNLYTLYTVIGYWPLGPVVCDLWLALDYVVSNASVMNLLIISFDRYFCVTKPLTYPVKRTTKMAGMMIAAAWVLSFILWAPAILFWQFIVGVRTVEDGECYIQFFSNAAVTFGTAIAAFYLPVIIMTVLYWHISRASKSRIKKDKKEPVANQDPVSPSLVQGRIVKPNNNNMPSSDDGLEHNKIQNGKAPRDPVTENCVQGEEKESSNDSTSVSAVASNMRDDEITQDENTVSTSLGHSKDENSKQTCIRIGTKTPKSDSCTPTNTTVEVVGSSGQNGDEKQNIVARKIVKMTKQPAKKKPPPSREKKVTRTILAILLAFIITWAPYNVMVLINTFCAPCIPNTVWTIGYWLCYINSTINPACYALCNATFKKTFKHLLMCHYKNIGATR
Experiment: Displacement of [3H]NMS from human muscarinic M2 receptor expressed in CHO-K1 cells after 1 hr by scintillation counting
pIC50 here: minus log base 10 of the concentration, concentration in moles per litre.

Below: 4 compounds and their reported pIC50.
[[record]]
compound = "O=C(O[C@H]1C[N+]2(CCOc3ccccc3)CCC1CC2)N(Cc1ccccc1)c1ccccc1.[Br-]"
recorded_measurement = 8.41

[[record]]
compound = "O=C(O[C@H]1CN2CCC1CC2)N1CCc2ccccc2[C@@H]1c1ccccc1 [SOLIFENACIN SUCCINATE]"
recorded_measurement = 6.24

[[record]]
compound = "CCCCN(C(=O)O[C@H]1CN2CCC1CC2)c1ccccc1"
recorded_measurement = 7.64

[[record]]
compound = "O=C(O[C@H]1C[N+]2(CCCc3cccs3)CCC1CC2)N(Cc1ccccc1)c1ccccc1.[Br-]"
recorded_measurement = 8.12


Given the entry "Cc1ccc(N(Cc2ccccc2)C(=O)O[C@H]2CN3CCC2CC3)cc1" , what pIC50 was observed with Muscarinic acetylcholine receptor M2 (Homo sapiens, UniProt P08172)?
6.71

----------
Target: Muscarinic acetylcholine receptor M1 (Homo sapiens)
Sequence (P11229 whole entry): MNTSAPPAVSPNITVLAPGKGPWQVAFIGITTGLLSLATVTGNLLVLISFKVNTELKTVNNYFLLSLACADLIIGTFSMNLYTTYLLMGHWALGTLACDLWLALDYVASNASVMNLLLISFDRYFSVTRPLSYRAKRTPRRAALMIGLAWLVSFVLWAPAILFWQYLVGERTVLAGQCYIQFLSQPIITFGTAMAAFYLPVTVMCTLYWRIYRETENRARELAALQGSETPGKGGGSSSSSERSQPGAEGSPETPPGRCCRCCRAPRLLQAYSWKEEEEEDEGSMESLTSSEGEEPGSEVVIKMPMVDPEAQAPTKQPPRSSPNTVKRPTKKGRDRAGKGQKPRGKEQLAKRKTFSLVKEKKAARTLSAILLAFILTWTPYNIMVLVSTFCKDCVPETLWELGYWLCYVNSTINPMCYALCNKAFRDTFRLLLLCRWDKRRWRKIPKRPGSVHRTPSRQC
Test: Displacement of [3H]NMS from human muscarinic M1 receptor expressed in CHO-K1 cells after 1 hr by scintillation counting
value-type: pIC50
pIC50 here: minus log base 10 of the concentration, concentration in moles per litre.

Below: 4 molecules and their reported pIC50.
[[record]]
molecule = "O=C(O[C@H]1C[N+]2(CCOc3ccccc3)CCC1CC2)N(Cc1cccs1)c1ccccc1.[Br-]"
value_type = "pIC50"
recorded_measurement = 9.40

[[record]]
molecule = "O=C(O[C@H]1C[N+]2(CCOc3ccccc3)CCC1CC2)N(Cc1ccccc1)c1ccccc1.[Br-]"
value_type = "pIC50"
recorded_measurement = 8.77

[[record]]
molecule = "O=C(O[C@H]1CN2CCC1CC2)N(Cc1ccccc1)c1ccc(F)cc1"
value_type = "pIC50"
recorded_measurement = 8.08

[[record]]
molecule = "O=C(O[C@H]1C[N+]2(CCOc3ccccc3)CCC1CC2)N(Cc1cc(F)c(F)c(F)c1)c1cccc(F)c1.[Br-]"
value_type = "pIC50"
recorded_measurement = 8.96


Could you share which pIC50 value was measured for "O=C(O[C@H]1CN2CCC1CC2)N(c1ccccc1)c1ccccc1" ?
6.50

Could you share which pIC50 value was measured for "O=C(O[C@H]1C[N+]2(CCc3ccccc3)CCC1CC2)N(Cc1ccccc1)c1ccccc1.[Br-]" ?
7.82

Could you share which pIC50 value was measured for "O=C(O[C@H]1CN2CCC1CC2)N(Cc1cccs1)c1ccccc1" ?
9.40

Could you share which pIC50 value was measured for O=C(O[C@H]1CN2CCC1CC2)N1CCc2ccccc2[C@@H]1c1ccccc1 [SOLIFENACIN SUCCINATE] ?
7.20

Could you share which pIC50 value was measured for "O=C(O[C@H]1C[N+]2(CCCc3ccccc3)CCC1CC2)N(Cc1ccccc1)c1ccccc1.[Br-]" ?
8.82

Could you share which pIC50 value was measured for "O=C(O[C@H]1CN2CCC1CC2)N(Cc1ccccc1)Cc1cccs1" ?
8.06

Could you share which pIC50 value was measured for "O=C(O[C@H]1CN2CCC1CC2)N(Cc1ccccc1)c1ccccc1" ?
9.40

Could you share which pIC50 value was measured for "CCCCN(C(=O)O[C@H]1CN2CCC1CC2)c1ccccc1" ?
8.96

Could you share which pIC50 value was measured for "O=C(O[C@H]1CN2CCC1CC2)N(CCc1ccccc1)c1ccccc1" ?
9.00
